src = patent US11512089B2

Assay: Kinetic solubility in 50 mM phosphate buffer pH 7.4
Format: physicochemical
Settings: aqueous buffer, kinetic from dmso stock, 50 mM phosphate buffer pH 7.4, 2% DMSO, room temperature
Endpoint: solubility kinetic at 24 h (µg/mL)
Please respond with the number in µg/mL and leave the unit unwritten.

# input Entry COCc1cc(-c2nnc3c4ccccc4c(OCc4ccc(C(=O)N5CC(O)C5)cn4)nn23)no1 needs its solubility kinetic at 24 h filled in; supply it.
# output 6.57

# input Kindly indicate its recorded solubility kinetic at 24 h. Item: COCc1cc(-c2nnc3c4ccccc4c(OCc4ccc(C(=O)NC5CC5)cn4)nn23)no1
# output 10.9

# input State its solubility kinetic at 24 h for this compound: Cc1cc(-c2nnc3c4ccccc4c(OCc4ccc(C(=O)NC(C)C)cn4)nn23)no1 [reference compound]
# output 2.2

# input Give a short answer stating reported solubility kinetic at 24 h for COCc1cc(-c2nnc3c4ccccc4c(OCc4ccc(C(=O)NC5CCC(F)(F)C5)cn4)nn23)no1 (stereo not drawn) .
# output 5.62

# input Annotate the compound COCc1cc(-c2nnc3c4ccccc4c(OCc4ccc(C(=O)NC5CCC(F)(F)CC5)cn4)nn23)no1 with its measured solubility kinetic at 24 h.
# output 2.99

# input Retrieve solubility kinetic at 24 h measured for COCc1cc(-c2nnc3c4ccccc4c(OCc4ccc(C(=O)NC(COC)COC)cn4)nn23)no1 and print it.
# output 6.85
